# Tested on: Caco-2 cell line
# method.description: Cytotoxicity MTS assay, Caco-2 cell line
# Assay type: cell-based
# conditions: 100μM; second assay; Caco-2 cell line
# Lookup of reported OD490 Well 1 keyed by entry
Write the value as a bare number.

compound	OD490 Well 1
COC(=O)c1[nH]c(C2NC(=S)NC(C)=C2C(=O)c2ccccc2)c(C(=O)OC)c1C (stereo not shown)	0.4326

*Q* Under Caco-2 cell line: OD490 Well 1 value of CCOC(=O)c1[nH]c(C2NC(=O)NC(C)=C2C(=O)Nc2ccccc2C)c(C(=O)OC)c1C (stereo not shown) ?
*A* 0.4418

*Q* Same lookup for CCOC(=O)c1c(C2NC(=O)NC(C)=C2C(=O)Nc2ccccc2OC)[nH]c(C(=O)OC)c1C (stereo not shown) [D1] , please.
*A* 0.5662

*Q* Same lookup for CCOC(=O)c1[nH]c(C2NC(=O)NC(C)=C2C(=O)Nc2ccccc2OC)c(C(=O)OC)c1C (stereo not shown) , please.
*A* 0.7196

*Q* Same lookup for CCOC(=O)c1[nH]c(C2NC(=S)NC(C)=C2C(=O)OC)c(C(=O)OCC)c1C (stereo not shown) , please.
*A* 0.5668

*Q* Same lookup for CCOC(=O)c1c(C2NC(=O)NC(C)=C2C(=O)Nc2ccccc2)[nH]c(C(=O)OC)c1C (stereo not shown) , please.
*A* 0.4737

*Q* Same lookup for CCOC(=O)c1c(C2NC(=O)NC(C)=C2C(=O)Nc2ccccc2C)[nH]c(C(=O)OC)c1C (stereo not shown) [D2] , please.
*A* 0.5278

*Q* Same lookup for CCOc1ccccc1C1NC(=S)NC(C)=C1C(=O)Nc1ccc(Cl)cc1 (stereo not shown) , please.
*A* 0.2898

*Q* Same lookup for CCOC(=O)C1=C(C)NC(=S)NC1c1cccc(O)c1 (stereo not shown) [Monastrol, monastrol, reference compound] , please.
*A* 0.5213

*Q* Same lookup for CCOC(=O)c1[nH]c(C2NC(=O)NC(C)=C2C(=O)Nc2ccc(Cl)cc2)c(C(=O)OCC)c1C (stereo not shown) , please.
*A* 0.4755
